- target: Human Met (Homo sapiens, UniProt P08581)
- Construct: Human MET (residues 956-1390)
- Sequence (P08581 974-1390 limits assumed): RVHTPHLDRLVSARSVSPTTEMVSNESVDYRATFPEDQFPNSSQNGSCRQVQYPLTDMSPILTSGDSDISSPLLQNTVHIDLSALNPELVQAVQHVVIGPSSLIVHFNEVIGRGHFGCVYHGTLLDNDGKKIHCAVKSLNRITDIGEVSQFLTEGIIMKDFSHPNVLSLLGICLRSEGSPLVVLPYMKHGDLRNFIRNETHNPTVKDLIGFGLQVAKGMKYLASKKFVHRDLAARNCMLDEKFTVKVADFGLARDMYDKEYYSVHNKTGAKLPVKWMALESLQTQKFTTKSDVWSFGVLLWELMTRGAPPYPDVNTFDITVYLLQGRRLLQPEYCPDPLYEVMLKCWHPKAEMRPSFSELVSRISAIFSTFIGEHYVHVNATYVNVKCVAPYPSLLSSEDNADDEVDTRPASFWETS
- assay overview: Human Met kinase assay (33P radiometric / HTRF KinEase)
- condition info: protocols of Examples D-1 and/or D-2; read-out: c-Met IC50
pIC50: −log10 of the molar value.
attribute measured: pIC50

Consider the following illustrative entries.
{"columns": ["molecule", "target", "attribute measured", "result"],
 "data": [
  ["C=C(C)c1c(C)nc(C)c(C(=O)Nc2ccc(Oc3ccnc4cc(OC)cnc34)c(F)c2)c1O [Compound 3]", "Human Met (Homo sapiens, UniProt P08581)", "pIC50", "≥ 7.00"],
  ["COc1cc2nccc(Oc3ccc(NC(=O)c4c(C)n(C)c(C)c(/C=C/C(C)(C)C)c4=O)cc3F)c2nc1OC [Compound 49]", "Human Met (Homo sapiens, UniProt P08581)", "pIC50", "< 6.52"],
  ["COc1cc2nccc(Oc3ccc(NC(=O)c4cnc(C)c(/C=C/CC(C)C)c4O)cc3F)c2nc1OC [Compound 28]", "Human Met (Homo sapiens, UniProt P08581)", "pIC50", "< 6.52"],
  ["COc1cnc2c(Oc3ccc(NC(=O)c4cn(C)c(C)c(C5=CCOCC5)c4=O)cc3F)ccnc2c1 [Compound 12]", "Human Met (Homo sapiens, UniProt P08581)", "pIC50", "≥ 7.00"],
  ["COc1cc2nccc(Oc3ccc(NC(=O)c4c5n(c(C)c(C6=CCOCC6)c4=O)CCOC5)cc3)c2nc1OC [Compound 73]", "Human Met (Homo sapiens, UniProt P08581)", "pIC50", "≥ 7.00"],
  ["COCCOc1cc2nccc(Oc3ccc(NC(=O)c4c(C)n(C)c(C)c(/C=C/C5CC5)c4=O)cc3F)c2nc1OC [Compound 51]", "Human Met (Homo sapiens, UniProt P08581)", "pIC50", "≥ 7.00"],
  ["COc1cc2nccc(Oc3ccc(NC(=O)c4c5n(c(C)c(C6=CCOCC6)c4=O)CCOC5)cc3F)c2nc1OC [Compound 79]", "Human Met (Homo sapiens, UniProt P08581)", "pIC50", "≥ 7.00"],
  ["C=C(C)c1c(C)nc(C)c(C(=O)Nc2ccc(Oc3ccnc4cc(OC)c(OC)nc34)c(F)c2)c1O [Compound 5]", "Human Met (Homo sapiens, UniProt P08581)", "pIC50", "≥ 7.00"]
]}

List reported pIC50 for each of these molecules:
1. COc1cc2nccc(Oc3ccc(NC(=O)c4cnc(C)c(/C=C/C5CC5)c4O)cc3F)c2nc1OC [Compound 26]
2. COCCOc1cc2nccc(Oc3cc(F)c(NC(=O)c4c(C)n(C)c(C)c(C#N)c4=O)cc3F)c2nc1OC [Compound 83]

1: ≥ 7.00; 2: < 6.52

---

- target: Human Met (Homo sapiens, UniProt P08581)
- Construct: Human MET (residues 956-1390)
- assay overview: Human Met kinase assay (33P radiometric / HTRF KinEase)
- condition info: protocols of Examples D-1 and/or D-2; read-out: c-Met IC50
pIC50: −log10 of the molar value.
attribute measured: pIC50

{"columns": ["molecule", "pIC50"],
 "data": [
  ["COc1cc2nccc(Oc3ccc(NC(=O)c4cnc(C)c(C5=CCCC5)c4O)cc3F)c2cc1OC [Compound 18]", "≥ 7.00"],
  ["COc1cc2nccc(Oc3ccc(NC(=O)c4c(C)nc(C)c(C(=O)N(C)C)c4O)cc3F)c2nc1OC [Compound 93]", "≥ 7.00"],
  ["CCc1c(Br)c(=O)c(C(=O)Nc2cc(F)c(Oc3ccnc4cc(OC)c(OC)nc34)cc2F)cn1C [Compound 63]", "< 6.52"]
]}

Now consider a different molecule.
Field request: pIC50 | item: C=C(C)n1c(C)cc(C)c(C(=O)Nc2ccc(Oc3ccnc4cc(OC)cnc34)c(F)c2)c1=O [Compound 21] ≥ 7.00

---

- target: Human Mer (Homo sapiens, UniProt Q12866)
- Construct: Human Mer (residues R557-E882 with H628Q and R794A, 0.7 nM)
- Sequence (Q12866 557-882 limits assumed): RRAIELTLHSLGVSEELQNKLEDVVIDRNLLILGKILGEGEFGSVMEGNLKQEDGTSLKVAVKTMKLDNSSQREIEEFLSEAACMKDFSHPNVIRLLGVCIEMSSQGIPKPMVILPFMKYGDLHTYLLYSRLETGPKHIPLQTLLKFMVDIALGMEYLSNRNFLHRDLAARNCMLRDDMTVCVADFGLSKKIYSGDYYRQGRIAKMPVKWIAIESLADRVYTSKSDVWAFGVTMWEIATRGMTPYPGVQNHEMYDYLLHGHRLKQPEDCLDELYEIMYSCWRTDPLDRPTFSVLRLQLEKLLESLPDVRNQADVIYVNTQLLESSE
- assay overview: Human Mer kinase assay (33P radiometric / HTRF KinEase)
- condition info: protocols of Examples C-1 and/or C-2
pIC50: −log10 of the molar value.
attribute measured: pIC50

Consider the following illustrative entries.
{"columns": ["item smiles", "pIC50"],
 "data": [
  ["C=C(C)c1c(C)nc(C)c(C(=O)Nc2cc(F)c(Oc3ccnc4cc(OC)c(OC)nc34)cc2F)c1O", "≥ 7.00"],
  ["COc1cc2nccc(Oc3ccc(NC(=O)c4c5n(c(C)c(C6=CCCC6)c4=O)CCOC5)cc3F)c2nc1OC", "≥ 7.00"],
  ["COc1cc2nccc(Oc3ccc(NC(=O)c4c(C)n(C)c(C)c(N5CCOCC5)c4=O)cc3F)c2nc1OC", "≥ 7.00"],
  ["COc1cc2nccc(Oc3ccc(NC(=O)c4c5n(cc(C6=CCCCC6)c4=O)CCOC5)cc3F)c2nc1OC", "≥ 7.00"],
  ["COc1cc2nccc(Oc3ccc(NC(=O)c4c(C)n(C)c(C)c(C5=CCOCC5)c4=O)cc3F)c2nc1OC", "≥ 7.00"],
  ["COc1cc2nccc(Oc3ccc(NC(=O)c4cnc(C)c(/C=C/C5CC5)c4O)cc3F)c2nc1OC", "≥ 7.00"]
]}

List reported pIC50 for each of these compounds:
1. COc1cnc2c(Oc3ccc(NC(=O)c4c(C)nc(C)c(C(C)C)c4O)cc3F)ccnc2c1
2. COc1cnc2c(Oc3ccc(NC(=O)c4c(C)nc(C)c(OC)c4O)cc3)ccnc2c1

1. ≥ 7.00
2. ≥ 7.00

List reported pIC50 for each of these compounds:
1. COc1cc2nccc(Oc3ccc(NC(=O)c4cnc(C)c(C5=CCOCC5)c4O)cc3F)c2cc1OC
2. COCCOc1cc2nccc(Oc3ccc(NC(=O)c4cnc(C)c(C5=CCOCC5)c4O)cc3F)c2nc1OC
3. COc1cc2nccc(Oc3ccc(NC(=O)c4c(C)n(C)c(C)c(C(=O)NC5CC5)c4=O)cc3F)c2nc1OC
4. COc1cc2nccc(Oc3ccc(NC(=O)c4cnc(C)c(C5=CCCCC5)c4O)cc3)c2cc1OC
5. COc1cc2nccc(Oc3ccc(NC(=O)c4c(C)n(C)c(C)c(/C=C/C(C)(C)C)c4=O)cc3F)c2nc1OC
6. COc1cc2nccc(Oc3ccc(NC(=O)c4cnc(C)c(/C=C/C(C)(C)C)c4O)cc3F)c2nc1OC

["≥ 7.00", "≥ 7.00", "< 6.52", "≥ 7.00", "≥ 7.00", "≥ 7.00"]

List reported pIC50 for each of these compounds:
1. COc1cc2nccc(Oc3ccc(NC(=O)c4c5n(c(C)c(C6=CCOCC6)c4=O)CCOC5)cc3)c2nc1OC
2. COc1cnc2c(Oc3ccc(NC(=O)c4c(C)nc(C)c(C(N)=O)c4O)cc3F)ccnc2c1
3. COCCOc1cc2nccc(Oc3cc(F)c(NC(=O)c4c(C)nc(C)c(C(N)=O)c4O)cc3F)c2nc1OC

1: ≥ 7.00; 2: < 6.52; 3: < 6.52

---

- target: Human Mer (Homo sapiens, UniProt Q12866)
- Construct: Human Mer (residues R557-E882 with H628Q and R794A, 0.7 nM)
- assay overview: Human Mer kinase assay (33P radiometric / HTRF KinEase)
- condition info: protocols of Examples C-1 and/or C-2
pIC50: −log10 of the molar value.
Record form. Attribute: pIC50. Fill in for each entry.

{"columns": ["molecule", "pIC50"],
 "data": [
  ["CCc1c(Br)c(=O)c(C(=O)Nc2ccc(Oc3ccnc4cc(OCCOC)c(OC)nc34)cc2)cn1C [Compound 64]", "≥ 7.00"],
  ["COc1cc2nccc(Oc3ccc(NC(=O)c4cnc(C)c(/C=C/C5CCCC5)c4O)cc3F)c2nc1OC [Compound 25]", "≥ 7.00"],
  ["COc1cnc2c(Oc3ccc(NC(=O)c4c(C)nc(C)c(OC)c4O)cc3F)ccnc2c1 [Compound 60]", "< 6.52"],
  ["COc1cc2nccc(Oc3ccc(NC(=O)c4c(C)nc(C)c(C(=O)N(C)C)c4O)cc3F)c2nc1OC [Compound 93]", "< 6.52"],
  ["COc1cnc2c(Oc3ccc(NC(=O)c4c(C)n(C)c(C)c(OC)c4=O)cc3F)ccnc2c1 [Compound 75]", "< 6.52"]
]}

List reported pIC50 for each of these molecules:
1. COc1cc2nccc(Oc3ccc(NC(=O)c4c(C)nc(C)c(C(C)C)c4O)cc3F)c2nc1OC [Compound 31]
2. COCCOc1cc2nccc(Oc3ccc(NC(=O)c4c(C)n(C)c(C)c(/C=C/C5CC5)c4=O)cc3F)c2nc1OC [Compound 51]
3. COc1cc2nccc(Oc3ccc(NC(=O)c4c(C)n(C)c(C)c(N5CCCCC5)c4=O)cc3F)c2nc1OC [Compound 90]
4. C=C(C)c1c(C)nc(C)c(C(=O)Nc2ccc(Oc3ccnc4cc(OC)cnc34)c(F)c2)c1O [Compound 3]
5. COCCOc1cc2nccc(Oc3ccc(NC(=O)c4cnc(C)c(C5=CCCC5)c4O)cc3F)c2nc1OC [Compound 33]
6. COc1cnc2c(Oc3ccc(NC(=O)c4cnc(C)c(C5=CCOCC5)c4O)cc3)ccnc2c1 [Compound 7]

["≥ 7.00", "≥ 7.00", "≥ 7.00", "≥ 7.00", "≥ 7.00", "≥ 7.00"]

List reported pIC50 for each of these molecules:
1. COCCOc1cc2nccc(Oc3ccc(NC(=O)c4c(C)nc(C)c(C5=CCCC5)c4O)cc3F)c2nc1OC [Compound 41]
2. C=C(C)n1c(C)cc(C)c(C(=O)Nc2ccc(Oc3ccnc4cc(OC)cnc34)c(F)c2)c1=O [Compound 21]

["≥ 7.00", "≥ 7.00"]
